Measured IC50 accompanies every entry in the list below.
# Tested on: Panc04.03 cells
# assayProtocol: MTS cell proliferation assay, pancreatic cancer cells
# cond: Homo sapiens, Panc 04.03, 72 h, read-out: inhibition of pancreatic cancer cell lines IC50, Panc 04.03
Give the quantity in nM, number only.

1. COc1ccc(-n2cc(-c3cccc(NC(=O)CCCCCCC(=O)NO)c3)nn2)cc1F
100

Query: Any idea what its IC50 is? The compound is O=C(CCCCCCC(=O)Nc1cccc(-c2cn(-c3ccc(CO)cc3)nn2)c1)NO
Response: 1000

====

# System: BxPC-3 cells
# assayProtocol: MTS cell proliferation assay, pancreatic cancer cells
# cond: Homo sapiens, BXPC-3, 72 h, read-out: inhibition of pancreatic cancer cell lines IC50, BxPC-3
measurementKind: IC50 (nM)
Supply the numeric figure in nM, leaving out any unit text.

1) O=C(CCCCCCC(=O)Nc1cccc(-c2cn(-c3ccc(CO)cc3)nn2)c1)NO
1000

Now for another entry.
Query: Provide value of IC50 for this record tested with BxPC-3 cells: COc1ccc(-n2cc(-c3cccc(NC(=O)CCCCCCC(=O)NO)c3)nn2)cc1F
Response: 200

====

Listed molecules paired with reported IC50
# System: MiaPaca-2 cells
# assayProtocol: MTS cell proliferation assay, pancreatic cancer cells
# cond: Homo sapiens, MIA PaCa-2, 72 h, read-out: inhibition of pancreatic cancer cell lines IC50, Mia Paca-2
# value in nM; strip the unit string

1. COc1ccc(-n2cc(-c3cccc(NC(=O)CCCCCCC(=O)NO)c3)nn2)cc1F
100

// next item, IC50 requested
Query: What value of IC50 on MiaPaca-2 cells does O=C(CCCCCCC(=O)Nc1cccc(-c2cn(-c3ccc(CO)cc3)nn2)c1)NO have?
Response: 200

====

Recorded measurements of IC50, one per entry
# experimentalTarget: HDAC6 (Homo sapiens)
# Sequence (Q9UBN7 whole entry, canonical isoform): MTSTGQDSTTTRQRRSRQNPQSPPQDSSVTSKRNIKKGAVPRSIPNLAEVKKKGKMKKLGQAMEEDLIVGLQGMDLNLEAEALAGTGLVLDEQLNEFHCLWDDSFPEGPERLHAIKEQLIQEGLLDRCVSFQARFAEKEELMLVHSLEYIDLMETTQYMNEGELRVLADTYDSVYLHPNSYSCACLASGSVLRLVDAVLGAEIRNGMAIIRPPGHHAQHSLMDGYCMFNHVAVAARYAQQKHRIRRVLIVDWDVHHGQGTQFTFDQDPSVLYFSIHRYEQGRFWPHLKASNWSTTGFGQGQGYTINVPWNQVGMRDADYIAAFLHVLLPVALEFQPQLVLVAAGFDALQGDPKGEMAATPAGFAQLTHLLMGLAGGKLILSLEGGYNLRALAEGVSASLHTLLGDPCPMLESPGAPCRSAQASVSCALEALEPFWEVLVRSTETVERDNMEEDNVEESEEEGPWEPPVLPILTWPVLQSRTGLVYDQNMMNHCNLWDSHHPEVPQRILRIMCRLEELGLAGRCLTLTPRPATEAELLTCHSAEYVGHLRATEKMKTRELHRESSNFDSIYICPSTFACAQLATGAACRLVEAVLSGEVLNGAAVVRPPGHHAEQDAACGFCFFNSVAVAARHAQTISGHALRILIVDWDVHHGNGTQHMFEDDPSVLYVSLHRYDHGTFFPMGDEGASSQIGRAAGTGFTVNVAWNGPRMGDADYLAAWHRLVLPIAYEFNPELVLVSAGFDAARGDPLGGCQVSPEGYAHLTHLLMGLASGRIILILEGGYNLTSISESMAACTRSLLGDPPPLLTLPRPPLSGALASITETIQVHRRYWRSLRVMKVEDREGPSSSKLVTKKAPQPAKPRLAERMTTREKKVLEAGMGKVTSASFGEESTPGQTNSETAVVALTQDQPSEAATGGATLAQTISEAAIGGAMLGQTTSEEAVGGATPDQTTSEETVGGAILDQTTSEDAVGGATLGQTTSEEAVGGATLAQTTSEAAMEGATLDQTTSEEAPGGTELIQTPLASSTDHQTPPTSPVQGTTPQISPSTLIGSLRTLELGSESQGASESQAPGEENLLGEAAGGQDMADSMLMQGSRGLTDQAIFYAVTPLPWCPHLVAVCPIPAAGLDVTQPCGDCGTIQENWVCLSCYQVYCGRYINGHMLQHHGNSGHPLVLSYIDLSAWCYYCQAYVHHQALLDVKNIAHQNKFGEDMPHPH
# assayProtocol: HDAC isoform inhibition assay
Form entry: value (nM) — number only.

1. O=C(CCCCCCC(=O)Nc1cccc(-c2cn(-c3ccc(CO)cc3)nn2)c1)NO
7.6

Query: Can you look up the measured IC50 of COc1ccc(-n2cc(-c3cccc(NC(=O)CCCCCCC(=O)NO)c3)nn2)cc1F for me?
Response: 3.85

====

# experimentalTarget: HDAC3 (Homo sapiens)
# Sequence (O15379 whole entry, canonical isoform): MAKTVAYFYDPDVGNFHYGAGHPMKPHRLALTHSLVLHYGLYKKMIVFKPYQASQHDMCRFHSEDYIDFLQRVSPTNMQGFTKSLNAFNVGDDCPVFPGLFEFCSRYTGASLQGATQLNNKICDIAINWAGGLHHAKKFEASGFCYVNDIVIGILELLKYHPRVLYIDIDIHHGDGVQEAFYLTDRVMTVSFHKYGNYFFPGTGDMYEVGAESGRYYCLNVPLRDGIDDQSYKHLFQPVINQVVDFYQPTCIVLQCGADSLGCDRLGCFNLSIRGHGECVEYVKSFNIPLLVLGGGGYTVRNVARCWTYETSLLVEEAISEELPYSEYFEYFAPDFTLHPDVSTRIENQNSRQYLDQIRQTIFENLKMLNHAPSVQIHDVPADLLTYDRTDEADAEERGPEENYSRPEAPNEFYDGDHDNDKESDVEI
# Sequence (Q9Y618 395-489 partner limits assumed): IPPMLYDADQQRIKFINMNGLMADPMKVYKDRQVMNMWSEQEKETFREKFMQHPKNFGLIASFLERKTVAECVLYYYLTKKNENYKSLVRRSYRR
# assayProtocol: HDAC isoform inhibition assay
measurementKind: IC50 (nM)
Report the figure in nM without appending any unit label.

Query: # lookup: IC50 of COc1ccc(-n2cc(-c3cccc(NC(=O)CCCCCCC(=O)NO)c3)nn2)cc1F
Response: 3.39
